target: UniProt:P08172; conditions: Receptor activity EC50, allosteric potency at EC20 acetylcholine; M2-GIRK1/4 reporter cells; in some cases mean of two or more determinations
Sequence (P08172 whole entry): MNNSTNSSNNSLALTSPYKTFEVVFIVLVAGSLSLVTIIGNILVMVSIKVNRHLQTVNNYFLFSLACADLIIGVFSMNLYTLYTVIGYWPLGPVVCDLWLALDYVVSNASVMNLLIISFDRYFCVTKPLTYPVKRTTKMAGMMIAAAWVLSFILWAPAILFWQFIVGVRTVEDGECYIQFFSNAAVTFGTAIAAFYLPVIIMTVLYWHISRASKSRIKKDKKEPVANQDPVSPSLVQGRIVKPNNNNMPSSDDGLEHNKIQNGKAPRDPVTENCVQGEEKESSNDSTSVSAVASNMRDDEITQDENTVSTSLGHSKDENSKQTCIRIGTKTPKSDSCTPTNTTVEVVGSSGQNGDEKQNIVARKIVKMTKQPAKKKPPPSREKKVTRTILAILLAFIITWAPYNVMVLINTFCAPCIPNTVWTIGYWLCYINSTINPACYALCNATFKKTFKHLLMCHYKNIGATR
Below, each entry is listed with its recorded pEC50.
// returns pEC50 (minus log10 of molar concentration), number only

The examples below pair each entry with its known result.
// pEC50 value for `CC[C@@H](NC(=O)c1cn(-c2c(F)cccc2F)c2nc(N3CCNC3=O)ccc2c1=O)C(F)(F)F` : 7.20

// pEC50 value for `C[C@H](NC(=O)c1cn(-c2c(F)cc(F)cc2Cl)c2nc(N3CCNC3=O)ccc2c1=O)C(F)(F)F` : 7.34

// pEC50 value for `O=C(N[C@H](C1CC1)C(F)(F)F)c1cn(-c2c(F)cc(F)cc2Cl)c2nc(N3C[C@@H](O)CC3=O)ccc2c1=O` : 8.05

New cases:
// pEC50 value for CC[C@H](NC(=O)c1cn(-c2c(F)cc(F)cc2Cl)c2nc(N3CCC(C)C3=O)ccc2c1=O)C(F)(F)F (mixture of isomers) [Example 422] : 8.22

Value source: patent US20190367516A1
